biological target: GDP-bound KRAS wild-type protein (Homo sapiens); experiment: Binding to KRAS by surface plasmon resonance (SPR), Single Cycle Kinetics; conditions: SPR, Single Cycle Kinetics, 1:1 binding model; GDP-bound KRAS wild-type protein; read-out: KRAS KD
Sequence (P01116 whole entry): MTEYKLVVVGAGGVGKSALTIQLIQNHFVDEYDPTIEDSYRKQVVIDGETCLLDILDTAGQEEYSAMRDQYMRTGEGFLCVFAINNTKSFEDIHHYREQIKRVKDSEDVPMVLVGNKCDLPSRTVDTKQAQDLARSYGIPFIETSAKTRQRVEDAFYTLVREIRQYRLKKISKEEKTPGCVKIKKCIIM
pKd: −log10 of the molar value.
experimental-readout: pKd

1) CC[C@H](C)[C@@H]1NC(=O)[C@H](CC2CC2)N(C)C(=O)C[C@@H](C(=O)N(C)C)N(C)C(=O)[C@H](C2CCCC2)N(C)C(=O)C2(CCC2)NC(=O)[C@@H]2CC(F)(F)CN2C(=O)[C@H](CCc2cc(F)c(C(F)(F)F)c(F)c2)NC(=O)CN(C)C(=O)[C@H](Cc2ccc(C(F)(F)F)cc2)N2CC/C=C\C[C@@H](C2=O)N(C)C(=O)CN(C)C1=O    10.41
2) CCO[C@@H]1C[C@H]2C(=O)NC3(CCC3)C(=O)N(C)[C@@H](C3CCCC3)C(=O)N(C)[C@H](C(=O)N3CCOCC3)CC(=O)N(C)[C@@H](CC)C(=O)N[C@@H]([C@@H](C)CC)C(=O)N3CC[C@H]3C(=O)N(C)[C@H]3CC[C@@H](C)CN(C3=O)[C@@H](Cc3ccc(C(F)(F)F)cc3)C(=O)N(C)CC(=O)N[C@@H](CCc3cc(F)c(C(F)(F)F)c(F)c3)C(=O)N2C1    9.59
3) CCO[C@@H]1C[C@H]2C(=O)NC3(CCC3)C(=O)N(C)[C@@H](C3CCCC3)C(=O)N(C)[C@H](C(=O)N(C)C)CC(=O)N(C)[C@@H](CC3CC3)C(=O)N[C@@H]([C@@H](C)CC)C(=O)N(C)CC(=O)N(C)[C@H]3C/C=C\CCN(C3=O)[C@@H](Cc3ccc(C)cc3)C(=O)N(C)CC(=O)N[C@@H](CCc3cc(F)c(Cl)c(F)c3)C(=O)N2C1    9.35
4) CCO[C@@H]1C[C@H]2C(=O)NC3(CCC3)C(=O)N(C)[C@@H](C3CCCC3)C(=O)N(C)[C@H](C(=O)N(C)C)CC(=O)N(C)[C@@H](CC3CC3)C(=O)N[C@@H]([C@@H](C)CC)C(=O)N(C)CC(=O)N(C)[C@H]3C/C=C\CCN(C3=O)[C@@H](Cc3ccc(F)cc3)C(=O)N(C)CC(=O)N[C@@H](CCc3ccc4sccc4c3)C(=O)N2C1    9.00
5) CC[C@H](C)[C@@H]1NC(=O)[C@H](CC2CC2)N(C)C(=O)C[C@@H](C(=O)N(C)C)N(C)C(=O)[C@H](C2CCCC2)N(C)C(=O)C2(CCCC2)NC(=O)[C@@H]2CCCN2C(=O)[C@H](CCc2cc(F)c(C(F)(F)F)c(F)c2)NC(=O)CN(C)C(=O)[C@H](Cc2ccc(C(F)(F)F)cc2)N2C[C@H](C)[C@H](C)C[C@@H](C2=O)N(C)C(=O)CN(C)C1=O    10.21
6) CCO[C@@H]1C[C@H]2C(=O)NC3(CCC3)C(=O)N(C)[C@@H](C3CCCC3)C(=O)N(C)[C@H](C(=O)N3CCOCC3)CC(=O)N(C)[C@@H](CC)C(=O)N[C@@H]([C@@H](C)CC)C(=O)N3CC[C@H]3C(=O)N(C)[C@H]3C[C@@H](C)[C@@H](C)CN(C3=O)[C@@H](Cc3ccc(C(F)(F)F)cc3)C(=O)N(C)CC(=O)N[C@@H](CCc3ccc(C(F)(F)F)c(Cl)c3)C(=O)N2C1    9.89
7) CCO[C@@H]1C[C@H]2C(=O)NC3(CC(F)(F)C3)C(=O)N(C)[C@@H](C3CCCC3)C(=O)N(C)C(C(C)C)CC(=O)N(C)[C@@H](CC3CC3)C(=O)N[C@@H]([C@@H](C)CC)C(=O)N(C)CC(=O)N(C)[C@H]3C/C=C\CCN(C3=O)[C@@H](Cc3ccc(C(F)(F)F)cc3)C(=O)N(C)CC(=O)N[C@@H](CCc3cc(F)c(C(F)(F)F)c(F)c3)C(=O)N2C1 (some centres unmarked)    9.12
8) CC[C@H](C)[C@@H]1NC(=O)[C@H](CC)N(C)C(=O)C[C@@H](C(=O)N(C)C)N(C)C(=O)[C@H](C2CCCC2)N(C)C(=O)C2(CCC2)NC(=O)[C@@H]2CC(F)(F)CN2C(=O)[C@H](CCc2cc(F)c(C(F)(F)F)c(F)c2)NC(=O)CN(C)C(=O)[C@H](CC2CCC(F)(F)CC2)N2CC/C=C\C[C@@H](C2=O)N(C)C(=O)CN(C)C1=O    10.23
9) CCO[C@@H]1C[C@H]2C(=O)NC3(CCC3)C(=O)N(C)[C@@H](C3CCCC3)C(=O)N(C)[C@H](C(=O)N(C)C)CC(=O)N(C)[C@@H](CC)C(=O)N[C@@H]([C@@H](C)CC)C(=O)N(C)CC(=O)N(C)[C@H]3CC/C=C(/C)CN(C3=O)[C@@H](Cc3ccc(C(F)(F)F)cc3)C(=O)N(C)CC(=O)N[C@@H](CCc3cc(F)c(C(F)(F)F)c(F)c3)C(=O)N2C1    7.96
10) CCO[C@@H]1C[C@H]2C(=O)NC3(CCC3)C(=O)N(C)[C@@H](C3CCCC3)C(=O)N(C)[C@H](C(=O)N(C)C)CC(=O)N(C)[C@@H](CC(C)(C)C)C(=O)N[C@@H]([C@@H](C)CC)C(=O)N(C)CC(=O)N(C)[C@H]3C/C=C\CCN(C3=O)[C@@H](CC3CCCCC3)C(=O)N(C)CC(=O)N[C@@H](CCc3cc(F)c(C(F)(F)F)c(F)c3)C(=O)N2C1    9.64
11) CCO[C@@H]1C[C@H]2C(=O)NC3(CCC3)C(=O)N(C)[C@@H](C(CC)CC)C(=O)N(C)[C@H](C(=O)N3CCCC3)CC(=O)N(C)[C@@H](C)C(=O)N[C@@H]([C@@H](C)CC)C(=O)N(C)CC(=O)N(C)[C@H]3C/C=C\CCN(C3=O)[C@@H](CC3CCC(F)(F)CC3)C(=O)N(C)CC(=O)N[C@@H](CCc3cc(F)c(C(F)(F)F)c(F)c3)C(=O)N2C1    9.54
